TARGET UNDER TEST: hVR1 (Homo sapiens)
Construct: expressed in transfected cells; host or cells: CHO K1 cells (ECACC), stably transfected
ASSAY EXPLANATION: Functional test on VR1, FLIPR Ca2+ influx in transfected CHO K1 cells, capsaicin
Assay type: cell-based, human being
CONDITION LABEL: capsaicin (Cap); includes values given in brackets after pAG; read-out: Ki (human being) [nM] Cap
From the text: In the process, the Ca^2+ influx is quantified in the FLIPR assay with the aid of a Ca^2+-sensitive dye (type Fluo-4, Molecular Probes Europe BV, Leiden, the Netherlands) in a fluorescent imaging plate reader (FLIPR, Molecular Devices, Sunnyvale, USA), as described hereinafter. II. Functional Tests Carried Out on the Vanilloid Receptor (VR1) The agonistic or antagonistic effect of the substances to be tested on the vanilloid receptor 1 (VR1) can also be determined using the following assay. […]
REPORTED METRIC: log10 Ki (log10 of the value in nM)
Kindly note that the scale is log10 and the underlying Ki is in nM.

Q) Please look up its log10 Ki: CC(C(=O)NCc1cc(C(F)(F)F)nn1-c1cccc(Cl)c1)c1cccc2c1CC=C2 (centres unmarked)
A) 0.60

Q) What does the record list as log10 Ki for CC(C(=O)NCc1cc(C(C)(C)C)nn1-c1cccc(Cl)c1)c1ccc2nccnc2c1 (centres unmarked) ?
A) 1.55

Q) Consider the compound shown here: CC(C(=O)NCc1cc(C(F)(F)F)nn1-c1cccc(Cl)c1)c1ccc2c(c1)C(=O)CC2 (centres unmarked) What is its recorded log10 Ki?
A) 1.11

Q) Give the measured log10 Ki of `CC(C)(C)c1cc(CNC(=O)Nc2cnc3ccccc3c2)n(-c2cccc(Cl)c2)n1` .
A) 1.85

Q) Tell me the measured log10 Ki of `CC(C)(C)c1cc(CNC(=O)Cc2ccc3c(c2)OCCO3)n(-c2cccc(Cl)c2)n1` , please.
A) 0.77

Q) Need log10 Ki, item CC(C(=O)NCc1cc(C(F)(F)F)nn1-c1cccc(Cl)c1)c1ccc2nc(N)sc2c1 (centres unmarked)
A) 1.36

Q) GET /values?readout=log10 Ki&item= CC(C(=O)NCc1cc(C(F)(F)F)nn1-c1cccc(Cl)c1)c1cccc2c1CCC2=O (centres unmarked)
A) -0.40

Q) Name the recorded log10 Ki for CC(C(=O)NCc1cc(C(C)(C)C)nn1-c1cccc(Cl)c1)c1cccc2ccc(O)cc12 (centres unmarked) .
A) 0.20

----------
Please respond with reported Ki for every item in the list.
TARGET UNDER TEST: hVR1 (Homo sapiens, UniProt Q8NER1)
Construct: expressed in transfected cells; host or cells: CHO K1 cells (ECACC), stably transfected
Sequence (Q8NER1 whole entry): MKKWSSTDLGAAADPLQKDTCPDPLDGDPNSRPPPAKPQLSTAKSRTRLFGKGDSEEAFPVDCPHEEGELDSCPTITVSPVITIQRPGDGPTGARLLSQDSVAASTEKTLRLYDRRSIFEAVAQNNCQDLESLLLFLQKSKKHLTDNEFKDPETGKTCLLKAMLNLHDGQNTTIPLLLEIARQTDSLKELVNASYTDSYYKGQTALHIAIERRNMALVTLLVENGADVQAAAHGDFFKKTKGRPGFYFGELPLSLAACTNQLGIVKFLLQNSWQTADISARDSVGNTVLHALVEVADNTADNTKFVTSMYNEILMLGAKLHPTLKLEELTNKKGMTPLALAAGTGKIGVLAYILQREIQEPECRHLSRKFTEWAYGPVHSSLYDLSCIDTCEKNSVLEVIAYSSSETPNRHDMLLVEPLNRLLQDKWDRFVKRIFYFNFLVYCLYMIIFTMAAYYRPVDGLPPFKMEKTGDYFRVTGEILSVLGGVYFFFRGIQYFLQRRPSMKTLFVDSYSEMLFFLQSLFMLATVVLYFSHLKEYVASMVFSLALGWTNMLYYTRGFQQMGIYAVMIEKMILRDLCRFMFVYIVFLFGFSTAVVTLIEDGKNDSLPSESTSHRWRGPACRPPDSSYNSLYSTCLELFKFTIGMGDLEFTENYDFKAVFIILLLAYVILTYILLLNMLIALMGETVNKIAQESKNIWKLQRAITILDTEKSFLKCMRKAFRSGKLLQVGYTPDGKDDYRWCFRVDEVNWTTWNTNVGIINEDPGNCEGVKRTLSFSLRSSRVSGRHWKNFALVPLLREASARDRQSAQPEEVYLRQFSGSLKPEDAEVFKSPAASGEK
ASSAY EXPLANATION: Functional test on VR1, FLIPR Ca2+ influx in transfected CHO K1 cells, capsaicin
Assay type: cell-based, human being
CONDITION LABEL: capsaicin (Cap); includes values given in brackets after pAG; read-out: Ki (human being) [nM] Cap
From the text: In the process, the Ca^2+ influx is quantified in the FLIPR assay with the aid of a Ca^2+-sensitive dye (type Fluo-4, Molecular Probes Europe BV, Leiden, the Netherlands) in a fluorescent imaging plate reader (FLIPR, Molecular Devices, Sunnyvale, USA), as described hereinafter. II. Functional Tests Carried Out on the Vanilloid Receptor (VR1) The agonistic or antagonistic effect of the substances to be tested on the vanilloid receptor 1 (VR1) can also be determined using the following assay. […]
The reply should be a number in nM, with the unit left off.

Q) Would you mind telling me what Ki value was observed for CC(C(=O)NCc1cc(C(F)(F)F)nn1-c1cccc(Cl)c1)c1cccc2c(F)cccc12 (centres unmarked) ?
A) 5.8

Q) Given `CC(C)(C)c1cc(CNC(=O)Nc2cccc3c2CCC3)n(-c2cccc(Cl)c2)n1` , state its recorded Ki.
A) 2.4

Q) Name the recorded Ki for `O=C(NCc1cc(C(F)(F)F)nn1-c1cccc(Cl)c1)Nc1cc(F)cc2[nH]ncc12` .
A) 8.4

Q) May I ask what Ki has been recorded for `CC(C)(C)c1cc(CNC(=O)Nc2cccc3ccc(O)cc23)n(-c2cccc(Cl)c2)n1` ?
A) 0.5

Q) GET /values?readout=Ki&item= `CC(C)(C)c1cc(CNC(=O)Nc2cccc3cnccc23)n(-c2cccc(Cl)c2)n1`
A) 0.2

Q) Which value of Ki has been reported for CC(C(=O)NCc1cc(C(C)(C)C)nn1-c1cccc(Cl)c1)c1ccc2c(c1)OCO2 (centres unmarked) in the records?
A) 3.5

Q) Fill blank: measured Ki of the molecule `CC(C)(C)c1cc(CNC(=O)Nc2cc(F)cc3[nH]ncc23)n(-c2ccccn2)n1` is ____.
A) 54

Q) Given the molecule `CC(C)(C)c1cc(CNC(=O)Nc2cccc3c2OCC3)n(-c2cccc(Cl)c2)n1` , what is its reported Ki?
A) 39.7

----------
Please go through the items and note down their IC50.
TARGET UNDER TEST: hVR1 (Homo sapiens, UniProt Q8NER1)
Construct: expressed in transfected cells; host or cells: CHO K1 cells (ECACC), stably transfected
ASSAY EXPLANATION: Functional test on human VR1, 45° C. stimulus
Format: cell-based, human being
CONDITION LABEL: read-out: IC50 (human being) [nM], 45° C.
Output spec: scalar in nM, unitless text.

Q) Enter reported IC50 observed with hVR1 (Homo sapiens, UniProt Q8NER1) for O=C(NCc1cc(C(F)(F)F)nn1-c1cccc(Cl)c1)Nc1ccc2c(c1)OCCO2 [Example 84]
A) 235

Q) Report IC50 for COc1ccc2cccc(C(C)C(=O)NCc3cc(C(F)(F)F)nn3-c3cccc(Cl)c3)c2c1 (centres unmarked) [Example 212] tested on hVR1 (Homo sapiens, UniProt Q8NER1).
A) 626

Q) Observed IC50 on hVR1 (Homo sapiens, UniProt Q8NER1) for CC(C(=O)NCc1cc(C(F)(F)F)nn1-c1cccc(Cl)c1)c1cccc2cnccc12 (centres unmarked) [Example 64] , please.
A) 357

Q) Hi! What's the reported IC50 for CC(C(=O)NCc1cc(C(C)(C)C)nn1-c1cccc(Cl)c1)c1cccc2ccc(O)cc12 (centres unmarked) [Example 57] on hVR1 (Homo sapiens, UniProt Q8NER1)?
A) 25.6

Q) Tell me reported IC50 for CC(C(=O)NCc1cc(C(F)(F)F)nn1-c1cccc(Cl)c1)c1cccc2cnc(Cl)cc12 (centres unmarked) [Example 213] , tested with hVR1 (Homo sapiens, UniProt Q8NER1).
A) 264

Q) Give recorded IC50 with hVR1 (Homo sapiens, UniProt Q8NER1) for the following compound: Cc1cc2c(C(C)C(=O)NCc3cc(C(F)(F)F)nn3-c3cccc(Cl)c3)cccc2cn1 (centres unmarked) [Example 65]
A) 780

Q) What reported IC50 corresponds to CC(C(=O)NCc1cc(C(F)(F)F)nn1-c1cccc(Cl)c1)c1cccc2c1CC(O)C2 (centres unmarked) [Example 208] on hVR1 (Homo sapiens, UniProt Q8NER1)?
A) 298

Q) Param readout= IC50; system= hVR1 (Homo sapiens, UniProt Q8NER1); entry= CC(C(=O)NCc1cc(C(F)(F)F)nn1-c1ccc(Cl)cc1)c1cccc2cnccc12 (centres unmarked) [Example 68] ; returns value.
A) 245

----------
TARGET UNDER TEST: hVR1 (Homo sapiens)
Construct: expressed in transfected cells; host or cells: CHO K1 cells (ECACC), stably transfected
ASSAY EXPLANATION: Functional test on human VR1, 45° C. stimulus
Format: cell-based, human being
Parameters: key: agonist / partial agonist / no effect: AG=agonist; pAG=partial agonist; NE=no effect
REPORTED METRIC: IC50 (human being), 45° C.: agonist / partial agonist / no effect

Record excerpt, results attached:
1) CC(C)(C)c1cc(CNC(=O)Nc2cccc3ncccc23)n(-c2cccc(Cl)c2)n1 ... AG
2) CC(C)(C)c1cc(CNC(=O)Nc2cccc3cnccc23)n(-c2cccc(Cl)c2)n1 ... pAG
3) CC(C(=O)NCc1cc(C(F)(F)F)nn1-c1cccc(Cl)c1)c1ccc2[nH]ncc2c1 (stereo not drawn) ... pAG
4) CC(C(=O)NCc1cc(C(C)(C)C)nn1-c1cccc(Cl)c1)c1ccc2cc(O)ccc2c1 (stereo not drawn) ... AG
5) CC(C(=O)NCc1cc(C(C)(C)C)nn1-c1cccc(Cl)c1)c1ccc2c(c1)OCCCO2 (stereo not drawn) ... pAG

Q) Give the measured IC50 (human being), 45° C.: agonist / partial agonist / no effect of CC(C(=O)NCc1cc(C(C)(C)C)nn1-c1cccc(Cl)c1)c1cccc2ncccc12 (stereo not drawn) .
A) AG

Q) Give the measured IC50 (human being), 45° C.: agonist / partial agonist / no effect of CC(C(=O)NCc1cc(C(F)(F)F)nn1-c1cccc(Cl)c1)c1ccc2cc(O)ccc2c1 (stereo not drawn) .
A) pAG

Q) Suppose we examine the compound CC(C(=O)NCc1cc(C(C)(C)C)nn1-c1cccc(Cl)c1)c1ccc2c(c1)OCCO2 (stereo not drawn) ; what IC50 (human being), 45° C.: agonist / partial agonist / no effect value has been reported?
A) pAG

Q) Data request, read-out IC50 (human being), 45° C.: agonist / partial agonist / no effect, for CC(C(=O)NCc1cc(C(C)(C)C)nn1-c1cccc(Cl)c1)c1ccc2c(c1)OCO2 (stereo not drawn)
A) pAG

Source: patent US8334315B2
